Below, each of the compounds is paired with its reported IC50 value.
# Tested on: HeLa
# Procedure Text: Cytotoxicity against human HeLa cells after 48 hrs by MTT assay
# Format: functional, cell-based
Write the number in µM without appending the unit.

O=C1C(=O)c2cccc3c2C(=C1Br)OCC3n1cc(-c2ccc(Cl)cc2)nn1 (configuration not stated) | 30.6
CCCc1ccc(-c2cn(C3COC4=C(Br)C(=O)C(=O)c5cccc3c54)nn2)cc1 (configuration not stated) | 11.8
CCCCc1ccc(-c2cn(C3COC4=C(Br)C(=O)C(=O)c5cccc3c54)nn2)cc1 (configuration not stated) | 12.5

Query :: Given the entry O=C1C(=O)c2cccc3c2C(=C1Cl)OCC3n1cc(-c2ccccn2)nn1 (configuration not stated) , report its measured IC50.
Result :: 28.9

Query :: Given the entry O=C1C(=O)c2cccc3c2C(=C1Br)OCC3n1cc(-c2ccccn2)nn1 (configuration not stated) , report its measured IC50.
Result :: 16.2

Query :: Given the entry CCc1ccc(-c2cn(C3COC4=C(Br)C(=O)C(=O)c5cccc3c54)nn2)cc1 (configuration not stated) , report its measured IC50.
Result :: 16.7

Query :: Given the entry O=C1C(=O)c2cccc3c2C(=C1Br)OCC3n1cc(C2CC2)nn1 (configuration not stated) , report its measured IC50.
Result :: 43.1

Query :: Given the entry CCCCCc1ccc(-c2cn(C3COC4=C(Br)C(=O)C(=O)c5cccc3c54)nn2)cc1 (configuration not stated) , report its measured IC50.
Result :: 7.72

---

# Test system: HL-60
# Procedure Text: Cytotoxicity against human HL60 cells after 48 hrs by MTT assay
# Format: functional, cell-based
# Setup Conditions: HL-60, 48 h
Below, each of the compounds is paired with its reported pIC50 value.
Scale: negative log10 of molar concentration, which is what pIC50 denotes.

O=C1C(=O)c2cccc3c2C(=C1Br)OCC3n1cc(-c2ccccc2)nn1 (configuration not stated) | 4.53
Cc1ccc(-c2cn(C3COC4=C(Cl)C(=O)C(=O)c5cccc3c54)nn2)cc1 (configuration not stated) | 4.70

Query :: Return pIC50 measured with HL-60 given this compound: COc1ccc(-c2cn(C3COC4=C(Cl)C(=O)C(=O)c5cccc3c54)nn2)cc1 (configuration not stated)
Result :: 5.15

Query :: Return pIC50 measured with HL-60 given this compound: CCc1ccc(-c2cn(C3COC4=C(Cl)C(=O)C(=O)c5cccc3c54)nn2)cc1 (configuration not stated)
Result :: 5.54

Query :: Return pIC50 measured with HL-60 given this compound: CCCCc1ccc(-c2cn(C3COC4=C(Br)C(=O)C(=O)c5cccc3c54)nn2)cc1 (configuration not stated)
Result :: 5.59

Query :: Return pIC50 measured with HL-60 given this compound: CCCCCc1ccc(-c2cn(C3COC4=C(Br)C(=O)C(=O)c5cccc3c54)nn2)cc1 (configuration not stated)
Result :: 5.63

Query :: Return pIC50 measured with HL-60 given this compound: CCCCCc1ccc(-c2cn(C3COC4=C(Cl)C(=O)C(=O)c5cccc3c54)nn2)cc1 (configuration not stated)
Result :: 5.45

Query :: Return pIC50 measured with HL-60 given this compound: CCCCc1ccc(-c2cn(C3COC4=C(Cl)C(=O)C(=O)c5cccc3c54)nn2)cc1 (configuration not stated)
Result :: 5.59

---

# Tested on: HeLa
# Procedure Text: Cytotoxicity against human HeLa cells after 48 hrs by MTT assay
# Assay type: functional, cell-based
Below, each of the compounds is paired with its reported IC50 value.
Write the number in µM without appending the unit.

Here is how some compounds turned out for IC50.
COc1ccc(-c2cn(C3COC4=C(Br)C(=O)C(=O)c5cccc3c54)nn2)cc1 (centres undefined) | 26.7
Cc1ccc(-c2cn(C3COC4=C(Br)C(=O)C(=O)c5cccc3c54)nn2)cc1 (centres undefined) | 26.6
COc1ccc(-c2cn(C3COC4=C(Cl)C(=O)C(=O)c5cccc3c54)nn2)cc1 (centres undefined) | 40.9
Cc1ccc(-c2cn(C3COC4=C(Cl)C(=O)C(=O)c5cccc3c54)nn2)cc1 (centres undefined) | 32.8
CCCc1ccc(-c2cn(C3COC4=C(Cl)C(=O)C(=O)c5cccc3c54)nn2)cc1 (centres undefined) | 24.4
CCCCCc1ccc(-c2cn(C3COC4=C(Cl)C(=O)C(=O)c5cccc3c54)nn2)cc1 (centres undefined) | 16.9
CCCCc1ccc(-c2cn(C3COC4=C(Cl)C(=O)C(=O)c5cccc3c54)nn2)cc1 (centres undefined) | 18

Query :: Given the entry CCc1ccc(-c2cn(C3COC4=C(Cl)C(=O)C(=O)c5cccc3c54)nn2)cc1 (centres undefined) , report its measured IC50.
Result :: 29.1

---

# Target: UniProtKB P11388
# Sequence (P11388 whole entry): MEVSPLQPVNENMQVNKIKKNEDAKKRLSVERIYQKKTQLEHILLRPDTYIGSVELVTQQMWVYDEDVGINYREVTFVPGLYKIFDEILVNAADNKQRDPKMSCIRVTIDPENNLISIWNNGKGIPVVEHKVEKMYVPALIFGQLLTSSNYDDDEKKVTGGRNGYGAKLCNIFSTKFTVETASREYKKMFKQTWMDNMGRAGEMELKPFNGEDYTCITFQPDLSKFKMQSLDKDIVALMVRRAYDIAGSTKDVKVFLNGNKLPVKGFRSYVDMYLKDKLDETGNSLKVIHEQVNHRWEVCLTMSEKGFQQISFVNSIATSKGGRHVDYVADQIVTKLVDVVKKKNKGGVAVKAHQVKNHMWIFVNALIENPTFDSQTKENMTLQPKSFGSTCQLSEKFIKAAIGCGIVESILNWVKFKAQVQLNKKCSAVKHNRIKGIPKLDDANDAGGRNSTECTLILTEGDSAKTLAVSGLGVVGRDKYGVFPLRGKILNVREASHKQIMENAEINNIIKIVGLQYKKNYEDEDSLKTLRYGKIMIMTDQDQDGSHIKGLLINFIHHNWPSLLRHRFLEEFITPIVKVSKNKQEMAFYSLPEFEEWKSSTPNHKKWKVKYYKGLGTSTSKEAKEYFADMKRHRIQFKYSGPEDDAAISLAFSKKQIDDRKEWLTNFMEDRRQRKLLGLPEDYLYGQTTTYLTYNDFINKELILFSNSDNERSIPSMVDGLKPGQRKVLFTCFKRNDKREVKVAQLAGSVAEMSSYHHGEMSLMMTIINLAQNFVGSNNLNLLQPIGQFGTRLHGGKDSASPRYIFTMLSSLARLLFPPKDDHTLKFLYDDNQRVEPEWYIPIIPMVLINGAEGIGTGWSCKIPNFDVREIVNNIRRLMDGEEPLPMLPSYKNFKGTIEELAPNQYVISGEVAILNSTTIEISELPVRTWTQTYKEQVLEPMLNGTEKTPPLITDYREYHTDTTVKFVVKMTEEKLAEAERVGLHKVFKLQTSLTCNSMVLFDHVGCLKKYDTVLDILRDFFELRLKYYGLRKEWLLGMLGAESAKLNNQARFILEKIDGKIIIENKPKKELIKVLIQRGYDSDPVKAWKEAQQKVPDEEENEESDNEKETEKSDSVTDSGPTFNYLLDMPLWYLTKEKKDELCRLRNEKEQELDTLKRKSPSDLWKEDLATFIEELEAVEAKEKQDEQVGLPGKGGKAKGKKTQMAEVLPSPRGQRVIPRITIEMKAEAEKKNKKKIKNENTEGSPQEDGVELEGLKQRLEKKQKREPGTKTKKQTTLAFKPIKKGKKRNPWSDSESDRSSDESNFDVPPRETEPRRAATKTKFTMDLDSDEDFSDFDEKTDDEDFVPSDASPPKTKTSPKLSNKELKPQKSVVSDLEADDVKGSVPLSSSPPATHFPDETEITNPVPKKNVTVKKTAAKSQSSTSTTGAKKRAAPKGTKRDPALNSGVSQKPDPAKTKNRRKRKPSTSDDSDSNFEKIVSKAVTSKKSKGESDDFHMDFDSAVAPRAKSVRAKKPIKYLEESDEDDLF
# Procedure Text: Inhibition of human DNA topoisomerase 2alpha using pBR322 DNA at 2 uM after 30 mins by agarose gel electrophoresis
Calls of active or inactive are those of the source. The calls are words filed in the database; no cut-off is given here.
Measured Attribute: inhibition

CCCCc1ccc(-c2cn(C3COC4=C(Br)C(=O)C(=O)c5cccc3c54)nn2)cc1 (stereo not drawn) | Active
CCCCc1ccc(-c2cn(C3COC4=C(Cl)C(=O)C(=O)c5cccc3c54)nn2)cc1 (stereo not drawn) | Active
COC(=O)c1cn(C2COC3=C(Br)C(=O)C(=O)c4cccc2c43)nn1 (stereo not drawn) | Active
CCCCCc1ccc(-c2cn(C3COC4=C(Br)C(=O)C(=O)c5cccc3c54)nn2)cc1 (stereo not drawn) | Active
COc1ccc(-c2cn(C3COC4=C(Br)C(=O)C(=O)c5cccc3c54)nn2)cc1 (stereo not drawn) | Active
Cc1ccc(-c2cn(C3COC4=C(Cl)C(=O)C(=O)c5cccc3c54)nn2)cc1 (stereo not drawn) | Active
O=C1C(=O)c2cccc3c2C(=C1Cl)OCC3n1cc(-c2ccccn2)nn1 (stereo not drawn) | Active
O=C1C(=O)c2cccc3c2C(=C1Cl)OCC3n1cc(-c2ccc(F)cc2)nn1 (stereo not drawn) | Active
O=C1C(=O)c2cccc3c2C(=C1Cl)OCC3n1cc(C2CC2)nn1 (stereo not drawn) | Active
COC(=O)c1nnn(C2COC3=C(Br)C(=O)C(=O)c4cccc2c43)c1C(=O)OC (stereo not drawn) | Active

Query :: Return inhibition measured with UniProtKB P11388 given this compound: O=C1C(=O)c2cccc3c2C(=C1Br)OCC3n1cc(-c2ccc(Cl)cc2)nn1 (stereo not drawn)
Result :: Active

Query :: Return inhibition measured with UniProtKB P11388 given this compound: O=C1C(=O)c2cccc3c2C(=C1Br)OCC3n1cc(-c2ccccc2)nn1 (stereo not drawn)
Result :: Active

Query :: Return inhibition measured with UniProtKB P11388 given this compound: CCOC(=O)c1cn(C2COC3=C(Br)C(=O)C(=O)c4cccc2c43)nn1 (stereo not drawn)
Result :: Active

Query :: Return inhibition measured with UniProtKB P11388 given this compound: CCCCCc1ccc(-c2cn(C3COC4=C(Cl)C(=O)C(=O)c5cccc3c54)nn2)cc1 (stereo not drawn)
Result :: Active

Query :: Return inhibition measured with UniProtKB P11388 given this compound: CCCc1ccc(-c2cn(C3COC4=C(Br)C(=O)C(=O)c5cccc3c54)nn2)cc1 (stereo not drawn)
Result :: Active

Query :: Return inhibition measured with UniProtKB P11388 given this compound: O=C1C(=O)c2cccc3c2C(=C1Br)OCC3n1cc(C2CC2)nn1 (stereo not drawn)
Result :: Active

Query :: Return inhibition measured with UniProtKB P11388 given this compound: COc1ccc(-c2cn(C3COC4=C(Cl)C(=O)C(=O)c5cccc3c54)nn2)cc1 (stereo not drawn)
Result :: Active

Query :: Return inhibition measured with UniProtKB P11388 given this compound: O=C1C(=O)c2cccc3c2C(=C1Cl)OCC3n1cc(-c2ccccc2)nn1 (stereo not drawn)
Result :: Active

Query :: Return inhibition measured with UniProtKB P11388 given this compound: CCc1ccc(-c2cn(C3COC4=C(Br)C(=O)C(=O)c5cccc3c54)nn2)cc1 (stereo not drawn)
Result :: Active

Query :: Return inhibition measured with UniProtKB P11388 given this compound: O=C1C(=O)c2cccc3c2C(=C1Br)OCC3n1cc(-c2ccccn2)nn1 (stereo not drawn)
Result :: Active

---

# Test system: HL-60
# Procedure Text: Cytotoxicity against human HL60 cells after 48 hrs by MTT assay
# Format: functional, cell-based
# Setup Conditions: HL-60, 48 h
Flag rule - IC50 less than 10 µM flags rule met; the remaining entries get rule not met.

Cc1ccc(-c2cn(C3COC4=C(Br)C(=O)C(=O)c5cccc3c54)nn2)cc1 (stereo not drawn) | rule not met
COc1ccc(-c2cn(C3COC4=C(Br)C(=O)C(=O)c5cccc3c54)nn2)cc1 (stereo not drawn) | rule not met
CCc1ccc(-c2cn(C3COC4=C(Br)C(=O)C(=O)c5cccc3c54)nn2)cc1 (stereo not drawn) | rule met
O=C1C(=O)c2cccc3c2C(=C1Cl)OCC3n1cc(-c2ccc(F)cc2)nn1 (stereo not drawn) | rule not met
O=C1C(=O)c2cccc3c2C(=C1Br)OCC3n1cc(C2CC2)nn1 (stereo not drawn) | rule not met

Query :: Check if IC50 falls below 10 µM for O=C1C(=O)c2cccc3c2C(=C1Br)OCC3n1cc(-c2ccc(Cl)cc2)nn1 (stereo not drawn) .
Result :: rule not met

Query :: Check if IC50 falls below 10 µM for COc1cc([C@@H]2c3cc4c(cc3[C@@H](O[C@@H]3O[C@@H]5CO[C@@H](C)O[C@H]5[C@H](O)[C@H]3O)[C@H]3COC(=O)[C@H]23)OCO4)cc(OC)c1O [ETOPOSIDE] .
Result :: rule met

Query :: Check if IC50 falls below 10 µM for CCOC(=O)c1cn(C2COC3=C(Cl)C(=O)C(=O)c4cccc2c43)nn1 (stereo not drawn) .
Result :: rule not met
